Values compiled from patent US20250163162A1.

Molecular target: T1, IL10Rα/IL2Rγ receptor (human) (UniProt Q13651)
T1 sequence (looked up) 1: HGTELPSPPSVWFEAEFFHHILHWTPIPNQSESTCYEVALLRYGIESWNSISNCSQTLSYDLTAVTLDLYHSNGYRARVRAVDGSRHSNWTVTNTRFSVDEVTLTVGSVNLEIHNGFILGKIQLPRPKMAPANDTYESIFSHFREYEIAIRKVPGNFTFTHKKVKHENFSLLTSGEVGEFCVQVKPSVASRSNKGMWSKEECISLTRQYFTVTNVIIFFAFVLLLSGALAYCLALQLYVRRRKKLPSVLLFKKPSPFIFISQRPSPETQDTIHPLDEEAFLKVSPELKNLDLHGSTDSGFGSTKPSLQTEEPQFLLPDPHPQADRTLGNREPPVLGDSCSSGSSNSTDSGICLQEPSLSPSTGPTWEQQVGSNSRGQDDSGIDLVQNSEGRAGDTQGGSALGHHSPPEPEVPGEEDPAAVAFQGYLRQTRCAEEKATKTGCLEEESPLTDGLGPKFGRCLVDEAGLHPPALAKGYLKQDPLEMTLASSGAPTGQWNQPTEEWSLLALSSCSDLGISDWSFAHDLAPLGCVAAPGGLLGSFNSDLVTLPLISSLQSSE
T1 sequence (looked up) 2: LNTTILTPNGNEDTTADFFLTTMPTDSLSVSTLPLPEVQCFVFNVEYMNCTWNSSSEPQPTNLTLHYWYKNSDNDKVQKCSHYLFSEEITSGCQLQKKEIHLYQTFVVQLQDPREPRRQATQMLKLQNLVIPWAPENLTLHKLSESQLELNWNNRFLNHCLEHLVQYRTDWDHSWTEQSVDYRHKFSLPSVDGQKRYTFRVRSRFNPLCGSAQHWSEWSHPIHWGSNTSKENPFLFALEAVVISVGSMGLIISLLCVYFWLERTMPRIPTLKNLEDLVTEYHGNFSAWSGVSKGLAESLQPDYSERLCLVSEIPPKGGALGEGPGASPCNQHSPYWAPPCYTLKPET
Experiment: cell-based or functional assay
IL-1β secretion, LPS treated monocytes, at 0.001 µM listing for selected binders.
assay_readout: IL-1β secretion, LPS treated monocytes, at 0.001 µM (pg/mL)

binder: hIL10Ra_VHH14 - hIL2Rg_VHH19, linker …, tag his (bispecific antibody, not shown: small tags and cut ends) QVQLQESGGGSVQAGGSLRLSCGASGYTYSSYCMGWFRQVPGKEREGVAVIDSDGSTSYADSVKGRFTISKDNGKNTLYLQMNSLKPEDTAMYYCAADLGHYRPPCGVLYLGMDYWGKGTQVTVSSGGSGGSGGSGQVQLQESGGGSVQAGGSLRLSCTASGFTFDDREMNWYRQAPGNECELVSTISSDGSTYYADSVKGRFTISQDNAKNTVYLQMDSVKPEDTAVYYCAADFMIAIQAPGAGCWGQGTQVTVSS
units_label: pg/mL
measured: 5390
--
binder: hIL10Ra_VHH14 - hIL2Rg_VHH19, linker GGGSGGGS, tag his (bispecific antibody, not shown: small tags and cut ends) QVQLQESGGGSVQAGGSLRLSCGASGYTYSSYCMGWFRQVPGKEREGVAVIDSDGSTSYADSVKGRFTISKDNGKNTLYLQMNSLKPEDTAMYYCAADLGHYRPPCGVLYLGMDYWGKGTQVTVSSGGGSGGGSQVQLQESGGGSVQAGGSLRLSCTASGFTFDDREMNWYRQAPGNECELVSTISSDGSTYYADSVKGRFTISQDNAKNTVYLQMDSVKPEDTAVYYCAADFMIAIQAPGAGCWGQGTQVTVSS
units_label: pg/mL
measured: 6200
--
binder: hIL10Ra_VHH14 - hIL2Rg_VHH19, linker GGGS, tag Fc (bispecific antibody, not shown: a dimerising Fc or GST) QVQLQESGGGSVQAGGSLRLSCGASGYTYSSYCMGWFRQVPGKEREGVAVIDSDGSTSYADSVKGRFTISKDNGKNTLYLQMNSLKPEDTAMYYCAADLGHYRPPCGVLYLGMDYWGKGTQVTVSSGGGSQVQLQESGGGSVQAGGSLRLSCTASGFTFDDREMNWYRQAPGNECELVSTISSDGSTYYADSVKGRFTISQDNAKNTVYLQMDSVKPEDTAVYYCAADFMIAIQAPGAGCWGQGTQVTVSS
units_label: pg/mL
measured: 5570
--
binder: hIL10Ra_VHH14 - hIL2Rg_VHH19, linker GGGS, tag his (bispecific antibody, not shown: small tags and cut ends) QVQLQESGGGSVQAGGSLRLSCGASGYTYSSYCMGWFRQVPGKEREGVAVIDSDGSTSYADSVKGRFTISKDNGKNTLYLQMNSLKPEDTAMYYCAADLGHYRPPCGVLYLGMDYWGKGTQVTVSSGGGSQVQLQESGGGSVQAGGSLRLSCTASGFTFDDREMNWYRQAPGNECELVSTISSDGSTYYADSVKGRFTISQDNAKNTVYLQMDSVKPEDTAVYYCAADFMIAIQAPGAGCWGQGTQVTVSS
units_label: pg/mL
measured: 6640
